B1: OR4K15 (parent)
chain: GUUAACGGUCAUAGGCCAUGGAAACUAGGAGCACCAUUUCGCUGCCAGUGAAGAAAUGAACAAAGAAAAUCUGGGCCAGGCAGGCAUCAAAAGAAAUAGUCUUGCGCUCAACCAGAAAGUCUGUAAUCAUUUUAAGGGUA

variants of: B1; test: self-cleavage, relative activity (ratio to wild type); higher = more cleavage; in vitro, sequencing; the parent is a self-cleaving ribozyme
Value Kind: self-cleavage
Response field accepts a number only; no unit should be typed.

Worked examples follow.
Variant Key	self-cleavage
U12A A66G	0.9
C35U A96G	0.88

Next variant, please.
Query :: Need self-cleavage, item A55G A64G
Result :: 0.88
